Cited source for all entries: patent US11104670B2

system.name: NMDA NR1/NR2B receptor (Homo sapiens (Human))
Sequence (Q13224 27-1484, other chains not shown): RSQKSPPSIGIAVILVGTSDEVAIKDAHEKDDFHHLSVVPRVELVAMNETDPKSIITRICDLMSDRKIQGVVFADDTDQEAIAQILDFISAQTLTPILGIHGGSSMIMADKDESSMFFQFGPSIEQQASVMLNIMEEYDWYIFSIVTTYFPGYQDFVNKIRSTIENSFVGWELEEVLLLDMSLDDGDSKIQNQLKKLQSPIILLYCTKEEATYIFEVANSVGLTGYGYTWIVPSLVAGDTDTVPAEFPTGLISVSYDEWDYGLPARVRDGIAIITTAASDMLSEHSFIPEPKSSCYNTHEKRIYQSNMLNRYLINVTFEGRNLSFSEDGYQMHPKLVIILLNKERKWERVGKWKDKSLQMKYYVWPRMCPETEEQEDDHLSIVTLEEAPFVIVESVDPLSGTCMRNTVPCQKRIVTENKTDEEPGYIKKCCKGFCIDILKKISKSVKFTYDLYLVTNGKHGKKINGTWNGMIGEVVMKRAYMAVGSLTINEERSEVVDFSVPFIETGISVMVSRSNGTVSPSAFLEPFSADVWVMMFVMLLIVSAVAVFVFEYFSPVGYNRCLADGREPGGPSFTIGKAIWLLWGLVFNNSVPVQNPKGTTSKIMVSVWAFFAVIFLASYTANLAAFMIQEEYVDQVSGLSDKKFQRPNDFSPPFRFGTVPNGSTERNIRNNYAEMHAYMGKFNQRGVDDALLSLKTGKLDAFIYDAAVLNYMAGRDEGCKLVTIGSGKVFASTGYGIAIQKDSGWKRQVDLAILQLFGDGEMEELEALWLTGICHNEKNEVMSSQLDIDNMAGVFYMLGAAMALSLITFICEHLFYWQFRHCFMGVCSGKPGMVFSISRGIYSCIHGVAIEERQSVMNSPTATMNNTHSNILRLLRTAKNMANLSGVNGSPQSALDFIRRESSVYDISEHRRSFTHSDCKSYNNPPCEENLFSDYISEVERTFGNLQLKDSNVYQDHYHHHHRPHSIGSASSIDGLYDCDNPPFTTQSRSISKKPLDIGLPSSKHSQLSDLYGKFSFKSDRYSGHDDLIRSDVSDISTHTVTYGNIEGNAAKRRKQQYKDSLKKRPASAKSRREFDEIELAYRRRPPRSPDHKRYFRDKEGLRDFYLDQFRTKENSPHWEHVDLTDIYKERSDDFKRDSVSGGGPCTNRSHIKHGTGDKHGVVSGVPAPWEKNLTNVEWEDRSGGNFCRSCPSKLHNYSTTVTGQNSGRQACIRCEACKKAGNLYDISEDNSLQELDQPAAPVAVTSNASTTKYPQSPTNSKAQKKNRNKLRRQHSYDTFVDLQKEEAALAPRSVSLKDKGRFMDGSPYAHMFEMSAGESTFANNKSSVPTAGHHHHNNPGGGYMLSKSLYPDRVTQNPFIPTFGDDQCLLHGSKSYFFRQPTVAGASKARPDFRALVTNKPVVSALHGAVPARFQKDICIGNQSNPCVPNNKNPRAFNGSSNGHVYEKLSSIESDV
assay.summary: NMDA NR1/NR2B FLIPR calcium assay in HEK293 cells
protocol.conditions: glycine/glutamate-induced calcium, read-out: IC50, in vitro NR2B affinity in the FLIPR assay
experimental.readout: IC50 (nM)

(1) CNC(=O)[C@@H]1CN(Cc2cnc(Oc3ccc(F)cc3)nc2)CCO1
(2) CNC(=O)[C@@H]1CN(Cc2cnc(Oc3ccc(Cl)cc3F)nc2)CCO1
(3) CNC(=O)[C@@H]1CN(Cc2cnc(Oc3ccc(F)cc3F)nc2)CCO1
(4) CNC(=O)[C@@H]1CN(Cc2cnc(Oc3c(C)cccc3F)nc2)CCO1
Input line: # descending IC50 order for the listed compounds Write out the labels following the order that was asked for.
Output line: 4, 1, 3, 2
(4: 933 nM, 1: 547 nM, 3: 143 nM, 2: 98 nM)

(A) CNC(=O)[C@@H]1CN(Cc2cnc(Oc3ccccc3Cl)nc2)CCO1
(B) CNC(=O)[C@@H]1CN(Cc2cnc(Oc3ccc(C)cc3F)nc2)CCO1
Input line: Look at A and B . Which one has the lower recorded IC50 number? Refer to your chosen item by its label in the answer.
Output line: B
(B: 133 nM, A: 550 nM)

* * *

system.name: MDR1 (P-gp) (Homo sapiens (Human), UniProt P08183)
assay.summary: MDCK assay P-gp (MDCK-MDR1 monolayer permeability)
Type: in vitro ADME
protocol.conditions: MDCK-MDR1, apical-to-basal, pH 7.4
Protocol: The MDCK assays provide information on the potential of a compound to pass the blood brain barrier. Permeability measurements across polarized, confluent MDCK-MDR1 cell monolayers grown on permeable filter supports are used as an in vitro absorption model: apparent permeability coefficients (PE) of the compounds across the MDCK-MDR1 cell monolayers are measured (pH 7.4, 37° C.) in apical-to-basal (AB) and basal-to-apical (BA) transport direction. […]
experimental.readout: Papp A→B (×10⁻⁶ cm/s)

(I) CNC(=O)[C@@H]1CN(Cc2cnc(Oc3ccc(C)cc3F)nc2)CCO1 [Example 20]
(II) CNC(=O)[C@@H]1CN(Cc2cnc(Oc3ccc(F)cc3C)nc2)CCO1 [Example 21]
Input line: Hey, which is lower on measured Papp A→B, I or II ? Return value: the label identifying the chosen record.
Output line: II
(II: 56 ×10⁻⁶ cm/s, I: 80 ×10⁻⁶ cm/s)

* * *

system.name: UniProt:Q9UQD0
assay.summary: Nav1.6 inhibition, IonWorks Quattro electrophysiology
Assay type: cell-based
protocol.conditions: 5 μM; normalized to vehicle (0%) and maximal inhibition control (100%)
experimental.readout: inhibition at 5 µM (%)

>>> value_reported("CNC(=O)[C@@H]1CN(Cc2cnc(Oc3ccc(C)cc3F)nc2)CCO1 [Example 20]")
-10.1
>>> value_reported("O=C(NCc1ccccn1)C1CN(Cc2cccc(Oc3ccccc3)c2)CCO1 (stereo not shown) [Example 105, reference compound]")
68
>>> value_reported("O=C(C1CN(Cc2cccc(Oc3ccccc3)c2)CCO1)N1CCOCC1 (stereo not shown) [Example 106, reference compound]")
14
>>> value_reported("CNC(=O)[C@@H]1CN(Cc2cnc(Oc3ccc(C)cc3)nc2)CCO1 [Example 28]")
-14.6
>>> value_reported("CNC(=O)[C@@H]1CN(Cc2cnc(Oc3ccc(Cl)cc3)nc2)CCO1 [Example 25]")
-18.8

(A) CNC(=O)[C@@H]1CN(Cc2cnc(Oc3ccc(F)cc3)nc2)CCO1 [Example 32]
(B) CNC(=O)[C@@H]1CN(Cc2cnc(Oc3ccccc3F)nc2)CCO1 [Example 27]
(C) CNC(=O)[C@@H]1CN(Cc2cnc(Oc3ccc(Cl)cc3F)nc2)CCO1 [Example 24]
(D) CNC(=O)[C@@H]1CN(Cc2cnc(Oc3ccc(F)cc3F)nc2)CCO1 [Example 23]
Input line: Hey, can you sort those compounds up there by inhibition at 5 µM, smallest first? Rank them, then answer with their labels in that order.
Output line: A, C, D, B

* * *

system.name: Nav1.6 channel (Homo sapiens (Human))
assay.summary: Nav1.6 inhibition, IonWorks Quattro electrophysiology
Assay type: cell-based
protocol.conditions: 1 μM; normalized to vehicle (0%) and maximal inhibition control (100%)
experimental.readout: inhibition at 1 µM (%)

Check out these entries, answers already filled in.
>>> value_reported("CCNC(=O)C1CN(Cc2cccc(Oc3ccccc3)c2)CCO1 (centres unmarked) [Example 100, reference compound]")
2.2
>>> value_reported("O=C(NCc1ccccn1)C1CN(Cc2cccc(Oc3ccccc3)c2)CCO1 (centres unmarked) [Example 105, reference compound]")
18.2
>>> value_reported("CNC(=O)[C@@H]1CN(Cc2cnc(Oc3ccc(C)cc3C)nc2)CCO1 [Example 22]")
3.8

(I) CNC(=O)[C@@H]1CN(Cc2cnc(Oc3ccccc3Cl)nc2)CCO1 [Example 26]
(II) CNC(=O)[C@@H]1CN(Cc2cnc(Oc3ccccc3F)nc2)CCO1 [Example 27]
(III) CNC(=O)[C@@H]1CN(Cc2cnc(Oc3ccc(F)cc3F)nc2)CCO1 [Example 23]
(IV) CNC(=O)[C@@H]1CN(Cc2cnc(Oc3ccc(Cl)cc3F)nc2)CCO1 [Example 24]
(V) CNC(=O)[C@@H]1CN(Cc2cnc(Oc3ccc(F)cc3)nc2)CCO1 [Example 32]
Input line: Endpoint returns the given compounds ordered by ascending inhibition at 1 µM. // ordering of labels required in reply
Output line: V, II, III, IV, I
(V: -7.7%, II: -3.1%, III: 0.1%, IV: 5.8%, I: 12.8%)

* * *

system.name: MDR1 (P-gp) (Homo sapiens (Human), UniProt P08183)
assay.summary: MDCK assay P-gp (MDCK-MDR1 monolayer permeability)
Assay type: in vitro ADME
protocol.conditions: MDCK-MDR1, pH 7.4, Papp (b-a) divided by Papp (a-b), read-out: efflux ratio PEBA/PEAB
experimental.readout: efflux ratio

>>> value_reported("CNC(=O)[C@@H]1CN(Cc2cnc(Oc3ccc(C)cc3F)nc2)CCO1 [Example 20]")
0.7
>>> value_reported("CNC(=O)[C@@H]1CN(Cc2cnc(Oc3ccccc3F)nc2)CCO1 [Example 27]")
0.7
>>> value_reported("CNC(=O)[C@@H]1CN(Cc2cnc(Oc3ccc(C)cc3C)nc2)CCO1 [Example 22]")
0.7

* * *

system.name: NMDA NR1/NR2B receptor (Homo sapiens (Human))
assay.summary: NMDA NR1/NR2B FLIPR calcium assay in HEK293 cells
protocol.conditions: glycine/glutamate-induced calcium, read-out: IC50, in vitro NR2B affinity in the FLIPR assay
experimental.readout: IC50 (nM)

>>> value_reported("CNC(=O)[C@@H]1CN(Cc2cnc(Oc3ccc(F)cc3C)nc2)CCO1")
702
>>> value_reported("CNC(=O)[C@@H]1CN(Cc2cnc(Oc3ccccc3)nc2)CCO1")
509
>>> value_reported("CNC(=O)[C@@H]1CN(Cc2cnc(Oc3ccc(C)cc3)nc2)CCO1")
500

* * *

system.name: MDR1 (P-gp) (Homo sapiens (Human), UniProt P08183)
assay.summary: MDCK assay P-gp (MDCK-MDR1 monolayer permeability)
Assay type: in vitro ADME
protocol.conditions: MDCK-MDR1, apical-to-basal, pH 7.4
experimental.readout: Papp A→B (×10⁻⁶ cm/s)

The cases that follow already have their Papp A→B on record.
>>> value_reported("CNC(=O)[C@@H]1CN(Cc2cnc(Oc3ccc(Cl)cc3)nc2)CCO1")
88
>>> value_reported("CNC(=O)[C@@H]1CN(Cc2cnc(Oc3ccc(F)cc3)nc2)CCO1")
82
>>> value_reported("CNC(=O)[C@@H]1CN(Cc2cnc(Oc3ccc(C)cc3)nc2)CCO1")
83
>>> value_reported("CNC(=O)[C@@H]1CN(Cc2cnc(Oc3ccc(C)cc3C)nc2)CCO1")
57
>>> value_reported("CNC(=O)[C@@H]1CN(Cc2cnc(Oc3ccc(Cl)cc3F)nc2)CCO1")
56

(A) CNC(=O)[C@@H]1CN(Cc2cnc(Oc3ccccc3Cl)nc2)CCO1
(B) CNC(=O)[C@@H]1CN(Cc2cnc(Oc3ccc(F)cc3F)nc2)CCO1
Input line: Hi there, can you help? I need to know whether A or B has lower measured Papp A→B. Could you answer with the label of the item you picked?
Output line: B
(B: 65 ×10⁻⁶ cm/s, A: 95 ×10⁻⁶ cm/s)

* * *

system.name: Nav1.6 channel (Homo sapiens (Human), UniProt Q9UQD0)
Sequence (Q9UQD0 whole entry): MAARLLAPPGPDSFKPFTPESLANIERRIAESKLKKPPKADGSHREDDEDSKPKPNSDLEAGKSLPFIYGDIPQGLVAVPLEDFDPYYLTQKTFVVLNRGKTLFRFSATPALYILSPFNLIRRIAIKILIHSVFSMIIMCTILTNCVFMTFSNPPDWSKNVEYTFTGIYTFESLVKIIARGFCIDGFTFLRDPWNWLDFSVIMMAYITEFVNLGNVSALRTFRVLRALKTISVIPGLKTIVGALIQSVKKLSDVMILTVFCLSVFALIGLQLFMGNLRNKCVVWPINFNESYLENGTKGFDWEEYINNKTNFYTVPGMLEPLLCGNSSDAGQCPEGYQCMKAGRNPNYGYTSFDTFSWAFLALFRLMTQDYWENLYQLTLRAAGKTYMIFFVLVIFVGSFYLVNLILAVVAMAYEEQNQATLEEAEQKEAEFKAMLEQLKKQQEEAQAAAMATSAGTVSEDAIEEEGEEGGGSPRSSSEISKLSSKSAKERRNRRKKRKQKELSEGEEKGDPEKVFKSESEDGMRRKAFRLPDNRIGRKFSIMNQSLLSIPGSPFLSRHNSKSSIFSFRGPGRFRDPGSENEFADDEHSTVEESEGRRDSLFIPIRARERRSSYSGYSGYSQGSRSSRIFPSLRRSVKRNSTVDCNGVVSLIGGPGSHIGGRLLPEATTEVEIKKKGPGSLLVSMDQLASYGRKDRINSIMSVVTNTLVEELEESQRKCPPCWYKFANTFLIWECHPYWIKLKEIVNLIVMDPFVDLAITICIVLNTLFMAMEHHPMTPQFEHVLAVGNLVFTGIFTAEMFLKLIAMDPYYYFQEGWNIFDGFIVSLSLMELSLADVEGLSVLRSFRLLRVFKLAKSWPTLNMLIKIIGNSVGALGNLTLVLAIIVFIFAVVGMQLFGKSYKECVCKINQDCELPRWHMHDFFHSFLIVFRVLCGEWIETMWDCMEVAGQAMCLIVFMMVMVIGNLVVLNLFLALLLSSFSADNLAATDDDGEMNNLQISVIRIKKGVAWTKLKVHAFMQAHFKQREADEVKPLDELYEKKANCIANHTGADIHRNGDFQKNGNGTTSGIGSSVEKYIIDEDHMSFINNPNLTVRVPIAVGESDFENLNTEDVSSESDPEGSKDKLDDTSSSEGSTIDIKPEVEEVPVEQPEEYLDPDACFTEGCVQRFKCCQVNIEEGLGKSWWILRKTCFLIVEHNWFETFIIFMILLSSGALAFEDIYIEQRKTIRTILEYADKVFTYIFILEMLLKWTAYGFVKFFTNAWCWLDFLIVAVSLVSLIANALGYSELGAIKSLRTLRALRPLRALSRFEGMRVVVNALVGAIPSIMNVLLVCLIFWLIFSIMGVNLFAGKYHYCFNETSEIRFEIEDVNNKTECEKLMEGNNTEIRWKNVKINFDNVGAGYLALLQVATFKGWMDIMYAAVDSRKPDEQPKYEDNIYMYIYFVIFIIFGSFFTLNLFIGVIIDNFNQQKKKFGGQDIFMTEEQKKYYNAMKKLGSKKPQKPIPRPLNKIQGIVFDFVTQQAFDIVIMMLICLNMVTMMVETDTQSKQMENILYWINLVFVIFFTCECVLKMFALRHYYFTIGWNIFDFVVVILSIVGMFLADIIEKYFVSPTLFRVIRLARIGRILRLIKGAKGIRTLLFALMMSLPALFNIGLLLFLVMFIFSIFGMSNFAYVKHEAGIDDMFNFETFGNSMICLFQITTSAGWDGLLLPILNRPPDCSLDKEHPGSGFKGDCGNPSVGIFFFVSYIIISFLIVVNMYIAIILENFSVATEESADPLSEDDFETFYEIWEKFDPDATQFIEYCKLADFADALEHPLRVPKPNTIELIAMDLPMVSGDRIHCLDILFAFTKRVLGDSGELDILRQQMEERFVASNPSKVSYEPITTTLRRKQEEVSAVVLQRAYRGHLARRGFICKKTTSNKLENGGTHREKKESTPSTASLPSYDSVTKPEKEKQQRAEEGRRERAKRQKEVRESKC
assay.summary: Nav1.6 inhibition, IonWorks Quattro electrophysiology
Assay type: cell-based
protocol.conditions: 5 μM; normalized to vehicle (0%) and maximal inhibition control (100%)
experimental.readout: inhibition at 5 µM (%)

>>> value_reported("CCNC(=O)C1CN(Cc2cccc(Oc3ccccc3)c2)CCO1 (stereo not shown) [Example 100, reference compound]")
37.8

(A) CNC(=O)[C@@H]1CN(Cc2cnc(Oc3ccc(F)cc3C)nc2)CCO1
(B) CNC(=O)[C@@H]1CN(Cc2cnc(Oc3ccc(C)cc3C)nc2)CCO1
(C) CNC(=O)[C@@H]1CN(Cc2cnc(Oc3ccccc3Cl)nc2)CCO1
Input line: Arrange the 3 entries by inhibition at 5 µM so the values rise. Answer format: the labels, in the requested order.
Output line: B, A, C
(B: -10.4%, A: 3.6%, C: 5.7%)
